# Test system: T-47D breast
# PROCEDURE DETAILS: NCI tumour cell line growth inhibition, 48 h
Quick reference: TGI of the listed items.

Worked examples follow.
Input line: Report measured TGI; entry is `CCOc1ccc(-n2nnc3c(N)nc(N)nc32)cc1`
Output line: > 100 µM

Input line: Supply measured TGI of `CCC1(COC(NC(=O)c2ccccc2)(C(F)(F)F)C(F)(F)F)COC1` in your reply.
Output line: > 100 µM

Input line: Recall and state the measured TGI for CSCCC(NC(=O)Cc1ccc(C(=O)c2ccccc2)cc1)C(=O)O (configuration not stated) .
Output line: > 100 µM

Input line: State its TGI for this compound: `CCOc1nc(N)nc(C)c1N=Nc1ccc(Cl)cc1`
Output line: > 100 µM

Input line: Give me measured TGI, please, for this compound: `Cc1ccc2nc(NC(=O)/C(Cc3nc4ccc(Cl)cc4[nH]c3=O)=N\NC(C)(C)C)sc2c1`
Output line: > 100 µM

Others:
Input line: Provide one value: measured TGI of `CN(C)c1ccc(N=Nc2ccncc2)cc1`
Output line: > 100 µM

Input line: Quickly give me recorded TGI for `CCN(CC)CCNCc1cc(Cl)cc2c1OCOC2`
Output line: > 10 µM

Input line: Check the records and state TGI for `c1ccc(CSCCc2ccncc2)cc1`
Output line: > 100 µM

Input line: For `Cc1cccc(NC(=O)c2sc3nc4c(cc3c2N)CN(Cc2ccccc2)CC4)c1C` , write its TGI.
Output line: > 50 µM

Input line: Indicate the recorded TGI value for this compound: `CSC(=S)N/N=C(\C)c1cccc(C)n1`
Output line: > 67.5 µM

Input line: Quickly give me recorded TGI for `O=C1NC(=O)C(c2cccc(Cl)c2)=C1Nc1ccc(O)c(Cl)c1`
Output line: > 23.1 µM

Input line: Provide one value: measured TGI of CC(C)(C)c1cc(C2COC(c3cc(C(C)(C)C)c(O)c(C(C)(C)C)c3)CO2)cc(C(C)(C)C)c1O (configuration not stated)
Output line: > 100 µM

----------
# Tested on: OVCAR-3 ovarian
# PROCEDURE DETAILS: NCI tumour cell line growth inhibition, 48 h
Below is a list of entries, each paired with its recorded TGI value.

Input line: Specify reported TGI for the compound shown: `COc1ccc(N=C2C(=Nc3ccc(OC)cc3)N(c3ccccc3)C(=S)N2N=C=C2Sc3ccccc3N2C)cc1`
Output line: > 100 µM

----------
# Test system: RXF 393 renal
# PROCEDURE DETAILS: NCI tumour cell line growth inhibition, 48 h
RECORDED METRIC: TGI

A selection of reference data follows.
Input line: State, in one line, measured TGI of O=C(NC1CCCC1=O)c1ccccc1 (centres undefined)
Output line: > 100 µM

Input line: Indicate its recorded TGI; the molecule in question is `O=C1NC(=S)N(c2ccccc2)C1=O`
Output line: > 100 µM

Input line: Given O=C(Cc1ccccc1)NN1C(=O)C(Cl)C1c1ccccc1O (centres undefined) , respond with its TGI.
Output line: > 100 µM

New cases:
Input line: For Fc1cccc(C2SCc3nc4ccccc4n32)c1F (centres undefined) , write its TGI.
Output line: > 100 µM

----------
# System: NCI-H460 lung
Write down one outcome, taken from Y for active, N for inactive

# example entries with known answers
Input line: Entry `N#CN1CC[C@H](C(=O)Nc2ncc(-c3ccncc3)s2)C1` : call = ?
Output line: Y

Input line: Entry `CC(=O)c1c(C(F)(F)F)n([O-])c2ccc(C)cc2[n+]1=O` : call = ?
Output line: N

Input line: Each molecule tested received a call. Report the one for CC1OC(O[C@H]2/C=C/C=C/C=C/C=C/C=C/C=C/C=C/[C@H](C)[C@@H](O)[C@@H](C)[C@H](C)OC(=O)CC(O)CC(O)CCC(O)C(O)CC(O)C[C@]3(O)C[C@H](O)C(C(=O)O)C(C2)O3)C(O)[C@H](N)C1O (some centres undefined) .
Output line: N

Now for another entry.
Input line: Which result was noted for this molecule in the test: C[C@@H]1O[C@@H](O[C@H]2CC[C@@]3(C)[C@H](CCC4[C@@H]3C(O)C[C@]3(C)[C@@H](c5ccc(=O)oc5)CC[C@]43O)C2)[C@H](O)[C@H](O)[C@H]1O (some centres undefined)
Output line: Y
